test system: Female CFLP mice; experiment: Effect on energy expenditure and food intake of mice; type: in vivo; conditions: percentage of mean food intake of mice dosed with water; over 21 hours after a single oral dose, 19.5-26.3 mg/kg p.o. (per compound, see Dose column)
observation_type: Mean Food Intake (percentage)
Note: unit percentage is implicit; provide only the numeric part.

Below, each entry is followed by its recorded Mean Food Intake result.
Mean Food Intake of CC(Cc1ccc(N(C)C)cc1)NCC(O)c1cccc(C(F)(F)F)c1 (centres unmarked) [Example 10] on Female CFLP mice?
70

Param item: CC(Cc1ccc(NS(C)(=O)=O)cc1)NCC(O)c1ccccc1 (centres unmarked) [Example 1]
80

Param item: CCNc1ccc(CC(C)NCC(O)c2cccc(C(F)(F)F)c2)cc1 (centres unmarked) [Example 6]
108

Param item: CC(Cc1ccc(N)cc1)NCC(O)c1cccc(C(F)(F)F)c1 (centres unmarked) [Example 7]
84

Param item: CC(Cc1ccc([N+](=O)[O-])cc1)NCC(O)c1cccc(C(F)(F)F)c1 (centres unmarked) [Example 9]
94

---
Mean Food Intake of CCOC(=O)Nc1ccc(CC(C)NCC(O)c2cccc(C(F)(F)F)c2)cc1 (centres unmarked) [Example 3] on Female CFLP mice?
76

Param item: CCOC(=O)C1CCN(c2ccc(CC(C)NCC(O)c3cccc(C(F)(F)F)c3)cc2)CC1 (centres unmarked) [Example 13]
95

Param item: CC(Cc1ccc(N2CCOCC2)cc1)NCC(O)c1cccc(C(F)(F)F)c1 (centres unmarked) [Example 12]
72

###

test system: Female CFLP mice; test: Effect on energy expenditure and food intake of mice; type: in vivo; conditions: percentage of mean food intake of mice dosed with water; over 21 hours after a single oral dose, 19.5-26.3 mg/kg p.o. (per compound, see Dose column)
observation_type: Mean Food Intake (percentage)
Note: unit percentage is implicit; provide only the numeric part.

Below, each entry is followed by its recorded Mean Food Intake result.
What Mean Food Intake value was documented for this compound, CC(=O)Nc1ccc(CC(C)NCC(O)c2cccc(C(F)(F)F)c2)cc1 (centres unmarked) [Example 4] ?
72

Param item: CC(Cc1ccc(NS(C)(=O)=O)cc1)NCC(O)c1cccc(C(F)(F)F)c1 (centres unmarked) [Example 2]
99

Param item: CNC(=O)Nc1ccc(CC(C)NCC(O)c2cccc(C(F)(F)F)c2)cc1 (centres unmarked) [Example 5]
72

Param item: CC(Cc1ccc(N2CCCC2)cc1)NCC(O)c1cccc(C(F)(F)F)c1 (centres unmarked) [Example 11]
95

---
What Mean Food Intake value was documented for this compound, CNC(=O)C1CCN(c2ccc(CC(C)NCC(O)c3cccc(C(F)(F)F)c3)cc2)CC1 (centres unmarked) [Example 14] ?
106

// provenance: patent EP0068669A1
